meta.source: patent US7390822B2

# melting point listing for each entry below
QUANTITY_MEASURED: melting point (°C)

{"columns": ["COMPOUND", "UNIT_STRING", "EXPERIMENTAL_RESULT"],
 "data": [
  ["O=C(c1ccccc1)N1CCC(c2ccccc2)(c2nccn2Cc2ccccc2)CC1 [Compound 2]", "°C", 122.7],
  ["CCOC(=O)N1CCC(c2ccccc2)(c2nccn2Cc2ccc(C(=O)OC)cc2)CC1 [Compound 3]", "°C", 149.1],
  ["CCOC(=O)N1CCC(c2ccccc2)(c2nccn2Cc2ccc(C(=O)O)cc2)CC1 [Compound 8]", "°C", 251.6],
  ["CCN/C(=N/C#N)N1CCC(c2ccccc2)(c2nccn2Cc2ccccc2)CC1 [Compound 4]", "°C", 84.2]
]}
